Biological target: recombinant F-protein (respiratory syncytial virus (RSV)) (UniProt P03420)
Sequence (P03420 whole entry): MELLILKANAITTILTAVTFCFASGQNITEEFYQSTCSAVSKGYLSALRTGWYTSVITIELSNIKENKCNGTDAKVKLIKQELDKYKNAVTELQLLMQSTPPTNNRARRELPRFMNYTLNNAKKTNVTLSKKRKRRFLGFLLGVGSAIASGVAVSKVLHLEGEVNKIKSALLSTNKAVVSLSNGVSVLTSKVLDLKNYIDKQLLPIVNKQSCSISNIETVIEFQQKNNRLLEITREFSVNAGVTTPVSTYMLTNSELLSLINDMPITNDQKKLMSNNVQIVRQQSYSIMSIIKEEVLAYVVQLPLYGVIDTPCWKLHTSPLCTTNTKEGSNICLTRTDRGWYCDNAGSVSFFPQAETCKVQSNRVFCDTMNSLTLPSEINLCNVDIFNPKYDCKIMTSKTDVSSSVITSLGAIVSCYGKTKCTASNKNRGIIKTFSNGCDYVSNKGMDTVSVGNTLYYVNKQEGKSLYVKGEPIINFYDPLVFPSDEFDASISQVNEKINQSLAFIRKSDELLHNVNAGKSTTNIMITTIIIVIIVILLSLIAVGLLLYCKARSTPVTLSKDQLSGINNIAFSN
Experiment: SPR Biacore T-200, antibody captured on protein A chip, F-protein as analyte
// reported koff per item
property: koff (s⁻¹)

INSERT INTO measurements (binder, property, unit_abbreviation, observed) VALUES
  ('4G1 (antibody, V domains shown) VH: QVTLKESGGGLVKPGGSLRLSCAASGFRLSSYGMNWVRQAPGKGLEWVSSISASSSFINYADSVRDRFTISRDNAKNSLYLQMNSLRAEDTAVYYCARDDYGSGSYSNWFDPWGQGTLVTVSS VL: QSVLTQPPSVSGAPGQRVTISCTGNSSNLGAGYDVHWYQQLPGRAPKLLIFANTNRPSGVPDRFSGSKSGASASLAITSLQADDEADYYCQSYDRSLSHVFGTGTKVTVLG', 'koff', 's⁻¹', '6.02e-05'),
  ('3H8 (antibody, V domains shown) VH: EVQLVESGGGLVKPGGSLRLSCAGSGFTFSSYTMHWVRQAPGKGLEWVSSITGGSSYVDYSASVKGRFTISRDNAQSSLYLQMNSLRAEDTAVYYCARDDYGSGSYSNWFDPWGRGTTVTVSS VL: QPVLTQPLSASGTPGQRVTISCTGSSSNIGAGYDVHWYQQLPGRAPKLLIFANTNRPSGVPDRFSGSKSGTSASLAITGLQAEDEADYYCQSYDRSLSHVFGTGTKVTVLG', 'koff', 's⁻¹', '6.06e-05'),
  ('12A1 (antibody, V domains shown) VH: EVQLVESGGGLIQPGGSLRLSCAGSGFTFSSYTMHWVRQAPGKGLEWVSSITGGSSYVDYSASVKGRFTISRDNAQSSLYLQMNSLRAEDTAVYYCARDDYGSGSYSNWFDPWGQGTLVTVSS VL: QSVLTQPPSVSGAPGQRVTISCTGSSSDIGAGYDVHWYQQLPGTAPKLLIFANTNRPSGVPDRFSGSKSGASASLAITGLQADDEADYYCQSYDRSLSHVFGTGTKVTVLG', 'koff', 's⁻¹', '3.18e-05'),
  ('#12m (antibody, V domains shown) VH: EVQLVESGGGLVKPGGSLRLSCAGSGFAFSSYTMHWVRQAPGKGLEWVSSITGGSSYLDYAHSVKGRFTISRDNGQNSLFLQMNSLRTEDTAVYYCARDDYGSGSYSNYFDPWGQGTLVTVSS VL: QSVLTQPPSVSGAPGQRVTISCTGSSSNIGAGYDVHWYQQVPGTAPKLLIFGSTNRPSGVPDRFSGSKSGASASLAITGLQTEDEADYYCQSYDRSLSHVFGTGTKVTVLG', 'koff', 's⁻¹', '2.07e-05');

Cited source: patent US20240182547A1
